Tested on: MDA-MB-435
Assay: NCI tumour cell line growth inhibition, 48 h
Calls of active or inactive are those of the source. Cut-off read from the data, not from the text of the source: active = GI50 up to about 1.1 µM and inactive = higher.
// one of Y = active, N = inactive, no free text

Answered cases to consult:
Cc1c(C)c(C)n(C2OC(CO)C(O)C(O)C2O)c(=S)c1C#N (stereo unspecified)
N
O=C(/C=C/c1ccsc1)c1ccco1
N
O=C(/C=C/c1cccc(Br)c1)N1CCN(CCOC(c2ccccc2)c2ccccc2)CC1
N
CCCCCCCCCCCCCCCCOP(=O)([O-])OCC[N+](C)(C)C1CC(C)(C)N(O)C(C)(C)C1
N
O=S(=O)(/N=C(\NO)Nc1ccc(Cl)cc1)c1ccc(-c2ccccn2)s1
N

Challenge: I'd appreciate the recorded outcome for COc1cc2c(cc1OC)C1C(O)C(OC)C=C3CC[N+](C)(C2)C31 (stereo unspecified) from this test.
Response given: N

Challenge: Short answer needed: outcome of this test for O=c1c2ccccc2sc2ccccc12 ?
Response given: N

###

System: MCF7
Test: NCI tumour cell line growth inhibition, 48 h
Calls of active or inactive are those of the source. No stated cut-off is given here; in the data, active = GI50 up to about 1.1 µM and inactive = higher.
Thanks in advance; please answer with one of these: active, inactive

Challenge: So what was the verdict on CC(C)(C)N1C=[N+](C(C)(C)C)CC1 in this test?
Response given: inactive

Challenge: Query: recorded result category for N#Cc1cc(-c2nc3ccc(F)cc3s2)ccc1N in this test
Response given: inactive

Challenge: Any idea what this test logged for O=C(/C=C/c1ccc(F)c(F)c1)OCCc1ccccc1 ?
Response given: inactive

Challenge: Tell me the assay call for CN(C)NC1=NS(=O)(=O)c2cc3c(=O)n(C)[nH]c3cc2S1 please.
Response given: inactive

Challenge: Hi, sorry to bother you, what did the test record for NC(CC(=O)Nc1cc(C(F)(F)F)ccc1Cl)=NO ?
Response given: inactive

Challenge: Tell me the assay call for CC(C)c1cc(C(C)C)c(B(c2ccccc2)c2ccccc2)c(C(C)C)c1Br please.
Response given: inactive

Challenge: // outcome(item) with item = O=C1CCC(C(=O)O)C2=C1CCCC2 (centres undefined)
Response given: inactive

Challenge: Tell me the recorded outcome of this test for N#C/C(=C/NC(=S)c1ccncc1)C(N)=O .
Response given: inactive

Challenge: // outcome(item) with item = Cc1c(C)c(C)n(C2OC(CO)C(O)C(O)C2O)c(=S)c1C#N (centres undefined)
Response given: inactive

Challenge: // return assay outcome for CCOC(=O)NN(C(=O)OCC)C(=C(c1ccccc1)N1CCOCC1)N(NC(=O)OCC)C(=O)OCC
Response given: inactive

Challenge: Could you kindly confirm the outcome this assay logged for CCOC(=O)C1C(c2ccc(OC)cc2)c2c(nn(-c3ccccc3)c2O)CC1(O)OCC (centres undefined) ?
Response given: inactive

Challenge: Could you kindly confirm the outcome this assay logged for CCCCc1ccc(-n2sc3ncccc3c2=O)cc1 ?
Response given: inactive

Challenge: Dear colleague, could you share the recorded outcome for CCCCCCC(=O)OC[n+]1ccc2c(C)c3[nH]c4ccc(OC)cc4c3c(C)c2c1 when you have a moment?
Response given: active

Challenge: Kindly provide the recorded test outcome for the following compound: COC(=O)C(CCC1C=CCC1)/N=C\c1ccccc1 (centres undefined)
Response given: inactive

Challenge: State the result this test recorded for C/C(=N\NC(=O)c1ccncc1)c1cccc(C(F)(F)F)c1 .
Response given: inactive

Challenge: Kindly provide the recorded test outcome for the following compound: COc1cc2c(c(O)c1OC)C(=O)C(Cc1ccc(O)cc1)CO2 (centres undefined)
Response given: inactive

###

Test system: HCC 2998
Assay: NCI tumour cell line growth inhibition, 48 h
The source made the active and inactive calls. Rule as the data show it: active = GI50 up to about 1.1 µM and inactive = higher.
Listing: GI50 of selected compounds

CC(C)(CC#N)c1cc(CC(C)(C)c2cc(CC(C)(C)c3cc(C(C)(C)C4(C)OCCO4)no3)no2)no1
> 100 µM (inactive)

Challenge: Report GI50 for O=C(NNCc1ccc(Cl)cc1)Nc1cccc2ccccc12 please.
Response given: > 100 µM (inactive)

Challenge: Consider the compound [O-][n+]1c2ccccc2[n+]([O-])c2cc(Br)ccc21 and give its measured GI50.
Response given: 16.5 µM (inactive)

Challenge: Name the recorded GI50 for CCOc1ccc2c(c1)[n+]([O-])c(-c1ccccc1)c(N)[n+]2[O-] .
Response given: 68.5 µM (inactive)

Challenge: Please report the recorded GI50 for NCCCN1c2ccccc2Sc2ccc(Cl)cc21 .
Response given: 2.12 µM (inactive)

Challenge: Give the measured GI50 of C=C1C(=O)OC2C1C(OC(=O)/C(C)=C/C)CC1(C)C(=O)CCC(=C)C21 (stereo not given) .
Response given: 9.73 µM (inactive)

Challenge: For CC(NC(=O)c1ccc(OP(=O)(OCc2ccc([N+](=O)[O-])o2)N(C)CCCCCl)cc1)c1ccc(OCC2CCCCC2)c(C(N)=O)c1 (stereo not given) , what is its reported GI50?
Response given: 3.14 µM (inactive)

Challenge: So what's the measured GI50 for this one? CCCn1c(=O)c2nn3c(=O)n(CCC)c(=O)c3nn2c1=O
Response given: > 100 µM (inactive)

Challenge: Which GI50 is listed for CC(C)(C)c1cc[n+](C[n+]2ccc(C(C)(C)C)cc2)cc1 ?
Response given: > 100 µM (inactive)

Challenge: What GI50 value was documented for this compound, COC(=O)C1=C(C(=O)OC)c2cc(OC)ccc2C(C(=S)N(C)C)S1 (stereo not given) ?
Response given: > 100 µM (inactive)

###

Test system: SF-539
Assay: NCI tumour cell line growth inhibition, 48 h
Calls of active or inactive are those of the source. Cut-off read from the data, not from the text of the source: active = GI50 up to about 1.1 µM and inactive = higher.
Result category, one only: active, inactive

For orientation, consider the following solved cases.
O=C(O)c1ccc2c(c1)CC1(C2)Cc2ccccc2C1=O (centres undefined)
inactive
CC(C)N1CN(C(C(=O)N[C@@H]2C(=O)N3C2SC(C)(C)C3C(=O)O)c2ccc(O)cc2)CSC1=S (some centres undefined)
inactive
O=S(=O)(/N=C(\NO)Nc1ccc(Cl)cc1)c1ccc(-c2ccccn2)s1
inactive
Cc1cc(C)cc(Nc2cc(O)nc(O)n2)c1
inactive
O=[N+]([O-])c1ccc(C2=NOC(c3ccccc3)N2C23CC4CC(CC(C4)C2)C3)cc1 (centres undefined)
inactive
CCOC(=O)c1cc(=O)c2cccc3c2n1CCS3
inactive
N=C1CSC2=NC3=C(CCC/C3=C\c3ccccc3)C(c3ccccc3)N12 (centres undefined)
inactive
N#C/C(=C/NC(=S)c1ccncc1)C(N)=O
inactive

Challenge: Kindly provide the recorded test outcome for the following compound: CCN(CC)CCCNc1nnc(C)c2[nH]c3ccccc3c12
Response given: inactive

Challenge: Tell me the assay call for NC(=O)NC1C(c2ccccc2)=C1c1ccccc1 please.
Response given: inactive

Challenge: What did this assay record as the result for Cc1c(-c2cc3n(n2)C(c2cccs2)C(C#N)=C(c2ccccc2)N3)c(=O)n(-c2ccccc2)n1C (centres undefined) ?
Response given: inactive

Challenge: What did this assay record as the result for CC(C)(C)C(=C[S+]([O-])/N=C/c1ccccc1)C(C)(C)C (centres undefined) ?
Response given: inactive

Challenge: Record lookup: outcome of this test for C[C@H]1O[C@@H](C(C)(C)C)OC(=O)[C@@H]1C(OC(=O)c1ccccc1)c1cccc2ccccc12 (some centres undefined) ?
Response given: inactive

Challenge: // return assay outcome for CCCCCNC(=O)OC1CCn2c1nc1c2C(=O)C(C)=C(N2CC2)C1=O (centres undefined)
Response given: inactive

###

Tested on: SN12C
Assay: NCI tumour cell line growth inhibition, 48 h
The source made the active and inactive calls. Rule as the data show it: active = GI50 up to about 1.1 µM and inactive = higher.
Classes to choose from: Y for active, N for inactive

Look over these answered cases.
COC(=O)C1=C(c2cc(OC)c(OC)c(OC)c2)OC(c2cc(OC)c(OC)c(OC)c2)C1COC(C)=O (stereo not drawn)
N
CN(C)c1ccccc1CC(c1c[nH]c2ccccc12)c1c[nH]c2ccccc12
N
CCOC(=O)c1cc(=O)c2cccc3c2n1CCS3
N
CC(=O)Nc1ccc2c3c(cc(O)c2c1)N(C(=O)CCCCCCC(=O)Nc1ccc2c4c(cc(O)c2c1)N(C(=O)OC(C)(C)C)CC4CCl)CC3CCl (stereo not drawn)
Y
O=c1[nH]c2ccc([N+](=O)[O-])cc2nc1/C(=N/Nc1ccccc1)C(O)c1ccco1 (stereo not drawn)
N

Challenge: Recorded test outcome, item O=C(/C=C/c1ccsc1)c1ccco1
Response given: N

Challenge: Hi, sorry to bother you, what did the test record for CCCCCCCCCCCCCCC(C(=O)[O-])[n+]1ccccc1 (stereo not drawn) ?
Response given: N

Challenge: Recorded call for COc1cc2c3c(c1)CCCN3CCC2 ?
Response given: N

Challenge: Which result was noted for this compound in the test: C=C(Br)CNC(=O)Nc1ccc(Cl)c(Cl)c1
Response given: N

Challenge: Entry O=C(O)CN(c1ccc(Cl)cc1)S(=O)(=O)c1ccccc1 : call = ?
Response given: N

###

Reported GI50 is given for each of the following compounds.
Test system: HOP-62
Assay: NCI tumour cell line growth inhibition, 48 h
Active and inactive are the calls of the source. Cut-off read from the data, not from the text of the source: active = GI50 up to about 1.1 µM and inactive = higher.

Solved entries (count: 2):
CC1=C(C(=O)Nc2ccccc2)C(c2cccc3ccccc23)C(C(=O)Nc2ccccc2)=C(C)N1
18.7 µM (inactive)
CSc1ncc2c(C#N)c3ccccn3c(=O)c2n1
> 100 µM (inactive)

Challenge: Quick check: GI50 of COc1ccc(OC)c(NC(=O)c2c(Cl)c(Cl)c(Cl)c(Cl)c2-c2nc3ccccc3[nH]2)c1 ?
Response given: > 100 µM (inactive)

Challenge: Could you tell me which GI50 is on file for CC1=NN(c2ccccc2)C(=O)C1=C1SCCCS1 ?
Response given: 42.1 µM (inactive)

Challenge: // lookup GI50 for CN(CCNC(=O)c1n[nH]c2c1ccc1ccccc12)CCNC(=O)c1n[nH]c2c1ccc1ccccc12
Response given: 2.11 µM (inactive)

Challenge: Fill blank: measured GI50 of the compound O=c1cc(CSc2c(-c3ccccc3)c(=O)n(-c3ccccc3)c(=S)n2-c2ccccc2)[nH]c(=O)[nH]1 is ____.
Response given: > 100 µM (inactive)

Challenge: Value lookup for GI50; key = O=[N+]([O-])c1ccc(C2=NOC(c3ccccc3)N2C23CC4CC(CC(C4)C2)C3)cc1 (stereo not given)
Response given: 26.5 µM (inactive)

Challenge: Give its GI50 value. Item: O=C1CCC2SC1CCC2=O
Response given: > 100 µM (inactive)

Challenge: Requested read-out: GI50. Entry: CC1=NNC(=O)C1C1CC(c2c[nH]c3ccccc23)=NN(c2ccccc2)C1=O (stereo not given)
Response given: > 100 µM (inactive)

Challenge: Reported GI50, compound COC[C@@H](/N=C/c1ccc(OC)cc1)C(C)C : ____
Response given: > 100 µM (inactive)

These entries and their values trace back to ChEMBL document CHEMBL1201862.
